Consider the following compounds; for each one, report its refractive index.
Experiment: refractive index (Na D-line) (dimensionless); xn = mol fraction of the nth substance listed
Conditions: 318.15 K; 100 kPa; Liquid; Standard Abbe refractometry; x1 = 0.25
Number only, please.

Which value of refractive index has been reported for CCCC[N+](CCCC)(CCCC)Cc1ccccc1.[Cl-] [benzyltributylammonium chloride] + OCCOCCOCCO in the records?
1.4827

Which value of refractive index has been reported for C[N+](C)(C)Cc1ccccc1.[Cl-] [trimethylbenzylammonium chloride] + OCCO in the records?
1.4893

Which value of refractive index has been reported for C[N+](C)(C)Cc1ccccc1.[Cl-] [trimethylbenzylammonium chloride] + OCC(O)CO in the records?
1.5039

Which value of refractive index has been reported for CCCC[N+](CCCC)(CCCC)Cc1ccccc1.[Cl-] [benzyltributylammonium chloride] + OCCOCCO in the records?
1.4849

###

Consider the following compounds; for each one, report its viscosity.
Experiment: xn = mol fraction of the nth substance listed
Details: 313.15 K; 100 kPa; Liquid; Falling or rolling sphere viscometry; x1 = 0.25
Write the value in mPa·s as a bare number.

Which value of viscosity has been reported for C[N+](C)(C)Cc1ccccc1.[Cl-] [trimethylbenzylammonium chloride] + OCCOCCO in the records?
44.4

Which value of viscosity has been reported for C[N+](C)(C)Cc1ccccc1.[Cl-] [trimethylbenzylammonium chloride] + OCCO in the records?
23.9

Which value of viscosity has been reported for CCCC[N+](CCCC)(CCCC)Cc1ccccc1.[Cl-] [benzyltributylammonium chloride] + OCCOCCOCCO in the records?
109.1

Which value of viscosity has been reported for C[N+](C)(C)Cc1ccccc1.[Cl-] [trimethylbenzylammonium chloride] + OCC(O)CO in the records?
238.3

Which value of viscosity has been reported for CCCC[N+](CCCC)(CCCC)Cc1ccccc1.[Cl-] [benzyltributylammonium chloride] + OCCOCCO in the records?
125.21

Which value of viscosity has been reported for CCCC[N+](CCCC)(CCCC)Cc1ccccc1.[Cl-] [benzyltributylammonium chloride] + OCC(O)CO in the records?
740.9

Which value of viscosity has been reported for C[N+](C)(C)Cc1ccccc1.[Cl-] [trimethylbenzylammonium chloride] + OCCOCCOCCO in the records?
115.6

Which value of viscosity has been reported for CCCC[N+](CCCC)(CCCC)Cc1ccccc1.[Cl-] [benzyltributylammonium chloride] + OCCO in the records?
117.1

###

Consider the following compounds; for each one, report its mass density.
Experiment: xn = mol fraction of the nth substance listed
Settings: 313.15 K; 100 kPa; Liquid; Vibrating tube method; x1 = 0.25
± gives the expanded uncertainty stated by the source.
// return the numeric value with its unit appended

Which value of mass density has been reported for CCCC[N+](CCCC)(CCCC)Cc1ccccc1.[Cl-] [benzyltributylammonium chloride] + OCCOCCO in the records?
1045.31 ± 11 kg/m3

Which value of mass density has been reported for CCCC[N+](CCCC)(CCCC)Cc1ccccc1.[Cl-] [benzyltributylammonium chloride] + OCC(O)CO in the records?
1093.28 ± 11 kg/m3

Which value of mass density has been reported for C[N+](C)(C)Cc1ccccc1.[Cl-] [trimethylbenzylammonium chloride] + OCCO in the records?
1091.85 ± 11 kg/m3

Which value of mass density has been reported for C[N+](C)(C)Cc1ccccc1.[Cl-] [trimethylbenzylammonium chloride] + OCCOCCOCCO in the records?
1107.21 ± 11 kg/m3

Which value of mass density has been reported for C[N+](C)(C)Cc1ccccc1.[Cl-] [trimethylbenzylammonium chloride] + OCC(O)CO in the records?
1173.14 ± 12 kg/m3

Which value of mass density has been reported for CCCC[N+](CCCC)(CCCC)Cc1ccccc1.[Cl-] [benzyltributylammonium chloride] + OCCO in the records?
1026.44 ± 10 kg/m3

Which value of mass density has been reported for C[N+](C)(C)Cc1ccccc1.[Cl-] [trimethylbenzylammonium chloride] + OCCOCCO in the records?
1101.21 ± 11 kg/m3

Which value of mass density has been reported for CCCC[N+](CCCC)(CCCC)Cc1ccccc1.[Cl-] [benzyltributylammonium chloride] + OCCOCCOCCO in the records?
1058.25 ± 11 kg/m3
